Assay: Biodistribution of radiometal-DOTA-BBN conjugates in CF1 normal mice
Settings: 1 hour post-injection
Provide the recorded Avg % ID, S. Intestine for the entries that follow.
Use % ID as the unit, but write only the number.

Just so you know, measured Avg % ID, S. Intestine for CSCC[C@H](NC(=O)[C@H](CC(C)C)NC(=O)[C@H](Cc1cnc[nH]1)NC(=O)CNC(=O)[C@@H](NC(=O)[C@H](C)NC(=O)[C@H](Cc1c[nH]c2ccccc12)NC(=O)[C@H](CCC(N)=O)NC(=O)CN1CCN(CC(=O)O)CCN(CC(=O)O)CCN(CC(=O)O)CC1)C(C)C)C(N)=O [177Lu-DOTA-0-BBN[7-14]NH2] [metal not drawn] came out at 1.27

Lab note: CSCC[C@H](NC(=O)[C@H](CC(C)C)NC(=O)[C@H](Cc1c[nH]cn1)NC(=O)CNC(=O)[C@@H](NC(=O)[C@H](C)NC(=O)[C@H](Cc1c[nH]c2ccccc12)NC(=O)[C@H](CCC(N)=O)NC(=O)CCCCCCCCCCNC(=O)CN1CCN(CC(=O)O)CCN(CC(=O)O)CCN(CC(=O)O)CC1)C(C)C)C(N)=O [177Lu-DOTA-11-Aun-BBN[7-14]NH2] [metal not drawn] gave Avg % ID, S. Intestine of 17.10

Looking up CSCC[C@H](NC(=O)[C@H](CC(C)C)NC(=O)[C@H](Cc1cnc[nH]1)NC(=O)CNC(=O)[C@@H](NC(=O)[C@H](C)NC(=O)[C@H](Cc1c[nH]c2ccccc12)NC(=O)[C@H](CCC(N)=O)NC(=O)CCNC(=O)CN1CCN(CC(=O)O)CCN(CC(=O)O)CCN(CC(=O)O)CC1)C(C)C)C(N)=O [111In-DOTA-β-Ala-BBN[7-14]NH2] [metal not drawn] , I see its Avg % ID, S. Intestine listed as 1.57
